For each of the molecules below, state its GI50.
system: M19-MEL; assay: NCI tumour cell line growth inhibition, 48 h
Active and inactive are the calls of the source. No stated cut-off is given here; in the data, active = GI50 up to about 1.1 µM and inactive = higher.

Molecule	System Under Test	Measure	Assay Result
O=NN(CC1(O)OCC(O)C(O)C1O)C(Cc1c[nH]c2ccccc12)C(=O)O (stereo not drawn)	M19-MEL	GI50	> 100 µM (inactive)
COc1nc2c(c(O)c(C)c(=O)n2OC2OCC(OC(C)=O)C(OC(C)=O)C2OC(C)=O)c(=O)n1C (stereo not drawn)	M19-MEL	GI50	> 100 µM (inactive)
O=S(=O)(OI(OI(OS(=O)(=O)C(F)(F)F)c1ccccc1)c1ccccc1)C(F)(F)F	M19-MEL	GI50	40.7 µM (inactive)

I need GI50 for every entry listed below, if you could help.
1. CC[C@@]1(O)C(=O)OCc2c1c(Cl)c1n(c2=O)Cc2cc3ccccc3nc2-1
2. Cc1ccc(S(=O)(=O)C2CC2(Cl)Cl)cc1 (stereo not drawn)
3. COC1=CC(C2c3cc4c(cc3[C@@H](Nc3ccc(F)cc3)C3COC(=O)[C@H]23)OCO4)=CC(=O)C1=O (stereo partly drawn)
4. O=C1C=CC(=O)c2cc(Sc3ccccc3)c(=O)c(Sc3ccccc3)cc21
5. CCOc1ccc2c(c1)[n+]([O-])c(C(N)=O)c(N)[n+]2[O-]
6. COc1ccc(Nc2nc3c(N)cc(C(F)(F)F)cc3nc2-c2ccccc2)cc1

result:
1: 1.67 µM (inactive); 2: 25.1 µM (inactive); 3: 15.4 µM (inactive); 4: 48.5 µM (inactive); 5: > 100 µM (inactive); 6: > 100 µM (inactive)
